# credit: ChEMBL document CHEMBL5143728

experimental-target: Toll-like receptor 1/2 (Homo sapiens, UniProt O60603+Q15399)
experimental-protocol: Agonist activity at TLR1/TLR2 in human THP-1 derived macrophages assessed as stimulation of TNF alpha release measured for 4 hrs by ELISA based assay relative to diprovocim-1
Assay type: cell-based
Design: concentration or dose not given beside the values
details: filed as agonist
Recorded measurements of Activity, one per entry
measured-property: Activity

[[record]]
chemical_smiles = "O=C(O)CCCCCCCCCCCNC(=O)[C@@H]1CN(C(=O)c2ccc(C(=O)N3C[C@@H](C(=O)N[C@H]4C[C@@H]4c4ccccc4)[C@H](C(=O)N[C@H]4C[C@@H]4c4ccccc4)C3)cc2)C[C@H]1C(=O)N[C@H]1C[C@@H]1c1ccccc1"
measured_property = "Activity"
assay_value = "100%"

[[record]]
chemical_smiles = "C[C@H](NC(=O)OC(C)(C)C)C(=O)OCCCCCCCCCCCCNC(=O)[C@@H]1CN(C(=O)c2ccc(C(=O)N3C[C@@H](C(=O)N[C@H]4C[C@@H]4c4ccccc4)[C@H](C(=O)N[C@H]4C[C@@H]4c4ccccc4)C3)cc2)C[C@H]1C(=O)N[C@H]1C[C@@H]1c1ccccc1"
measured_property = "Activity"
assay_value = "80%"


###

experimental-target: Toll-like receptor 1/2 (Homo sapiens, UniProt O60603+Q15399)
experimental-protocol: Agonist activity at TLR1/TLR2 in human THP-1 derived macrophages assessed as stimulation of TNF alpha release measured for 4 hrs by ELISA based assay relative to diprovocim-1
Type: cell-based
Parameters: concentration or dose not given beside the values
details: filed as agonist
Recorded measurements of Activity, one per entry
measured-property: Activity (%)

[[record]]
chemical_smiles = "CC(C)(C)OC(=O)NC1(C(=O)OCCCCCCCCCCCCNC(=O)[C@@H]2CN(C(=O)c3ccc(C(=O)N4C[C@@H](C(=O)N[C@H]5C[C@@H]5c5ccccc5)[C@H](C(=O)N[C@H]5C[C@@H]5c5ccccc5)C4)cc3)C[C@H]2C(=O)N[C@H]2C[C@@H]2c2ccccc2)CC1"
measured_property = "Activity"
measurement_unit = "%"
assay_value = 100

[[record]]
chemical_smiles = "C#CCCCCCCCCCCCCNC(=O)[C@@H]1CN(C(=O)c2ccc(C(=O)N3C[C@@H](C(=O)N[C@H]4C[C@@H]4c4ccccc4)[C@H](C(=O)N[C@H]4C[C@@H]4c4ccccc4)C3)cc2)C[C@H]1C(=O)N[C@H]1C[C@@H]1c1ccccc1"
measured_property = "Activity"
measurement_unit = "%"
assay_value = 120

[[record]]
chemical_smiles = "NCC(=O)OCCCCCCCCCCCCNC(=O)[C@@H]1CN(C(=O)c2ccc(C(=O)N3C[C@@H](C(=O)N[C@H]4C[C@@H]4c4ccccc4)[C@H](C(=O)N[C@H]4C[C@@H]4c4ccccc4)C3)cc2)C[C@H]1C(=O)N[C@H]1C[C@@H]1c1ccccc1"
measured_property = "Activity"
measurement_unit = "%"
assay_value = 100

[[record]]
chemical_smiles = "O=C(OCCCCCCCCCCCCNC(=O)[C@@H]1CN(C(=O)c2ccc(C(=O)N3C[C@@H](C(=O)N[C@H]4C[C@@H]4c4ccccc4)[C@H](C(=O)N[C@H]4C[C@@H]4c4ccccc4)C3)cc2)C[C@H]1C(=O)N[C@H]1C[C@@H]1c1ccccc1)c1ccc(O)cc1"
measured_property = "Activity"
measurement_unit = "%"
assay_value = 100

[[record]]
chemical_smiles = "O=C(NCCCCCCCCCCCCOCc1ccc([N+](=O)[O-])cc1)[C@@H]1CN(C(=O)c2ccc(C(=O)N3C[C@@H](C(=O)N[C@H]4C[C@@H]4c4ccccc4)[C@H](C(=O)N[C@H]4C[C@@H]4c4ccccc4)C3)cc2)C[C@H]1C(=O)N[C@H]1C[C@@H]1c1ccccc1"
measured_property = "Activity"
measurement_unit = "%"
assay_value = 110

[[record]]
chemical_smiles = "CC(C)(C)OC(=O)CCOCCOCCOCCNC(=O)CCCCCCCCCCCNC(=O)[C@@H]1CN(C(=O)c2ccc(C(=O)N3C[C@@H](C(=O)N[C@H]4C[C@@H]4c4ccccc4)[C@H](C(=O)N[C@H]4C[C@@H]4c4ccccc4)C3)cc2)C[C@H]1C(=O)N[C@H]1C[C@@H]1c1ccccc1"
measured_property = "Activity"
measurement_unit = "%"
assay_value = 100

[[record]]
chemical_smiles = "Nc1ccc(COCCCCCCCCCCCCNC(=O)[C@@H]2CN(C(=O)c3ccc(C(=O)N4C[C@@H](C(=O)N[C@H]5C[C@@H]5c5ccccc5)[C@H](C(=O)N[C@H]5C[C@@H]5c5ccccc5)C4)cc3)C[C@H]2C(=O)N[C@H]2C[C@@H]2c2ccccc2)cc1"
measured_property = "Activity"
measurement_unit = "%"
assay_value = 90

[[record]]
chemical_smiles = "CC(C)(C)OC(=O)COCCCCCCCCCCCCNC(=O)[C@@H]1CN(C(=O)c2ccc(C(=O)N3C[C@@H](C(=O)N[C@H]4C[C@@H]4c4ccccc4)[C@H](C(=O)N[C@H]4C[C@@H]4c4ccccc4)C3)cc2)C[C@H]1C(=O)N[C@H]1C[C@@H]1c1ccccc1"
measured_property = "Activity"
measurement_unit = "%"
assay_value = 100

